As shown below, each of these molecules has a reported Dmax value.
target: SMARCA4 (Homo sapiens); experiment: HiBiT assay for protein degradation, Hela SMARCA4-HiBiT cells (A series); assay type: cell-based; parameters: fuse HiBiT to the carboxy terminus of SMARCA2 (Promega CS302365) or SMARCA4 (Promega CS3023225); host or cells: HeLa (CRISPR/Cas9 HiBiT knock-in); conditions: Hela SMARCA4-HiBiT cells, 24 hours treatment; read-out: SMARC A4 Hela HiBit Dmax
Sequence (P51532 whole entry): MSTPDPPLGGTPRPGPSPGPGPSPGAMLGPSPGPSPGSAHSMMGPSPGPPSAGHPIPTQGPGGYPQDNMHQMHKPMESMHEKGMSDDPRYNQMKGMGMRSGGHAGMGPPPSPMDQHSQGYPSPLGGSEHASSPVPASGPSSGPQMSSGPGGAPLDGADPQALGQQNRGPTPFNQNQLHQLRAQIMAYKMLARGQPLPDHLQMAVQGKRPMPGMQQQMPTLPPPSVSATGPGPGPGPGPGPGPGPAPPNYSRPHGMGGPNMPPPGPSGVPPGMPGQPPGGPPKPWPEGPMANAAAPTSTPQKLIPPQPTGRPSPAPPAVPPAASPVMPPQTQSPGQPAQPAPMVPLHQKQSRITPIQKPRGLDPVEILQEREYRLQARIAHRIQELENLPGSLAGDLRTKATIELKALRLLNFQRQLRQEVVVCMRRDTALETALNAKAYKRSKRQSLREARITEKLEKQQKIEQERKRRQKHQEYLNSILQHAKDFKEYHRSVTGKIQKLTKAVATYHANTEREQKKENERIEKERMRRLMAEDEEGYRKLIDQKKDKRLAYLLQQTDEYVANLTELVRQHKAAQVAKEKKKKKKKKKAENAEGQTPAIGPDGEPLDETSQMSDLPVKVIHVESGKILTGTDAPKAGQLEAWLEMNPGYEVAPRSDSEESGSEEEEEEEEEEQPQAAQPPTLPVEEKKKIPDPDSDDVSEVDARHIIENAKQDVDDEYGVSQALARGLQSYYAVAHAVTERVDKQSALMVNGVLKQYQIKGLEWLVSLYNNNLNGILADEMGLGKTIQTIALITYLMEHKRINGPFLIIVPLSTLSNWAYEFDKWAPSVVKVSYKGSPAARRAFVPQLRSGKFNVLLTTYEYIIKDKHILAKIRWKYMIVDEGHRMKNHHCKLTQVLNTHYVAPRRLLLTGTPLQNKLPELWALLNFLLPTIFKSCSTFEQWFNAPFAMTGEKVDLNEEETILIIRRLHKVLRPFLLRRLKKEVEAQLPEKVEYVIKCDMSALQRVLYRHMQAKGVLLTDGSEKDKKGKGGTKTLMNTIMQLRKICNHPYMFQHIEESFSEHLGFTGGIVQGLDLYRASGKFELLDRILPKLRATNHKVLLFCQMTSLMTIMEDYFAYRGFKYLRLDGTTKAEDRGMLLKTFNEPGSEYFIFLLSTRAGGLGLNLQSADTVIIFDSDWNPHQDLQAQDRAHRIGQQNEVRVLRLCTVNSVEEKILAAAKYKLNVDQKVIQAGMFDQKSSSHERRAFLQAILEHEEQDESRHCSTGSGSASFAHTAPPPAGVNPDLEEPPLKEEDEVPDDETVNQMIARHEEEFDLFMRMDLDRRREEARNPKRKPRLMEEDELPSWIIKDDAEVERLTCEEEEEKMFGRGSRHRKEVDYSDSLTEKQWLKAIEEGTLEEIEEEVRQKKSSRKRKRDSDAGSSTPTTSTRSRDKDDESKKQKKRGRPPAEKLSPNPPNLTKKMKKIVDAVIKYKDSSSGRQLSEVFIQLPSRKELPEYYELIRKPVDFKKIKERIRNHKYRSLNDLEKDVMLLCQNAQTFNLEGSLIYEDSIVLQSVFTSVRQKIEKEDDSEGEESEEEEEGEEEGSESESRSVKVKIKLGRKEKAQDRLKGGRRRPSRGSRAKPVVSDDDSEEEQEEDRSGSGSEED

molecule	Dmax
COC(=O)C[C@H](NC(=O)[C@@H]1C[C@@H](O)CN1C(=O)[C@@H](n1cc([C@H]2CC[C@H](CN3CCC(c4ccc5c(c4)-n4c(nc(=O)c6c(Cl)cccc64)C54CCCCC4)CC3)CC2)nn1)C(C)(C)C)c1ccc(-c2scnc2C)cc1 [Compound A145]	50 to 69%

Next up:
Return reported Dmax. Input molecule: Cc1ncsc1-c1ccc([C@@H](NC(=O)[C@@H]2C[C@@H](O)CN2C(=O)[C@@H](n2cc(C3CC3)nn2)C(C)(C)C)C(=O)N2CCC(c3ccc4c(c3)-n3c(nc(=O)c5c(Br)cccc53)C43CCCCC3)CC2)cc1 [Compound A135]
> 90%

====

molecular target: UniProt P51531; assay: HiBiT assay for protein degradation, Hela SMARCA2-HiBiT cells (A series); format: cell-based; parameters: Hela cells were genetically modified via CRISPR/Cas9 to fuse HiBiT to the carboxy terminus of SMARCA2; host or cells: HeLa (CRISPR/Cas9 HiBiT knock-in); conditions: Hela SMARCA2-HiBiT cells, 24 hours treatment; read-out: SMARC A2 Hela HiBit DC50
Sequence (P51531 whole entry): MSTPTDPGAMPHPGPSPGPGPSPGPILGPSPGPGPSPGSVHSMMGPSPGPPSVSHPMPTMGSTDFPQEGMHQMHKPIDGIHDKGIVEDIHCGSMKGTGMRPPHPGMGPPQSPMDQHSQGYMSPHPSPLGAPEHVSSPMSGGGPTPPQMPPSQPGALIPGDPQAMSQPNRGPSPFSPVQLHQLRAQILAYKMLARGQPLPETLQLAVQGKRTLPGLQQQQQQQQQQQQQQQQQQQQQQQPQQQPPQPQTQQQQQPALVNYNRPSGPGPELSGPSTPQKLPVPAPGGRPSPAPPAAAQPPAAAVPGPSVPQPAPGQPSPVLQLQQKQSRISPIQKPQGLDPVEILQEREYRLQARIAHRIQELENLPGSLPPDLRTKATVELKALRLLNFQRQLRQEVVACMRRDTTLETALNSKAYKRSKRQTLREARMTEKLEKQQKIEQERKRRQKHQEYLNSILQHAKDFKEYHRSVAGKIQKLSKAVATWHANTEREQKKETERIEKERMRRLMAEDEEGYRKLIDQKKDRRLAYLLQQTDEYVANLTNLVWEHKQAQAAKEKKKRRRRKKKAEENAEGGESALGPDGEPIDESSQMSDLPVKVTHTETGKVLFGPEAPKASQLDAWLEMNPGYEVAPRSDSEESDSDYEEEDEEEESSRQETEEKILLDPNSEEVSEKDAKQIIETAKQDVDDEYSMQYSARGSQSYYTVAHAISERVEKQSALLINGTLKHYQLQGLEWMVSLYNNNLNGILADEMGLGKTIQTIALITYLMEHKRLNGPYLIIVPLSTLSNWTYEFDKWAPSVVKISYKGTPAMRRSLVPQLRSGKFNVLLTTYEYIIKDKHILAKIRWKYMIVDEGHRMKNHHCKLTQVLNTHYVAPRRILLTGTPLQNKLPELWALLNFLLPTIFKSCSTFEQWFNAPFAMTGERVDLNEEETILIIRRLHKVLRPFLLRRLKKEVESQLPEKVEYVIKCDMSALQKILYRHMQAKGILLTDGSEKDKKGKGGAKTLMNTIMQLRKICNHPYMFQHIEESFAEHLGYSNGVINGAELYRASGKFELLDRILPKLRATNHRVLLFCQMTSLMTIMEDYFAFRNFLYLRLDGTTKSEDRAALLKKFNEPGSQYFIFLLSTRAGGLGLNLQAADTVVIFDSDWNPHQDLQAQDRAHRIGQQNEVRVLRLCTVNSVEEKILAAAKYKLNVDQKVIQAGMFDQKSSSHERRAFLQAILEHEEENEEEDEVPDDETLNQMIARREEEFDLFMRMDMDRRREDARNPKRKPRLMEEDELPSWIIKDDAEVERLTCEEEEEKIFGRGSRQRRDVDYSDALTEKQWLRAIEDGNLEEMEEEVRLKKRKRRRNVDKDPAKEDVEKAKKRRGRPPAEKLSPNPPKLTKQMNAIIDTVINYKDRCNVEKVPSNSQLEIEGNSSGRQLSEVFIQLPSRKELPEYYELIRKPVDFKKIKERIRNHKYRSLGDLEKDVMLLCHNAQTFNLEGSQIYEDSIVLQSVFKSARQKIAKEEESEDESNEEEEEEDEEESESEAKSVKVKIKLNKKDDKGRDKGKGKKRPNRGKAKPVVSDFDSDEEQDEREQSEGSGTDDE
measurement_type: DC50

sample_smiles	DC50
Cc1ncsc1-c1ccc([C@H](C)NC(=O)[C@@H]2C[C@@H](O)CN2C(=O)[C@H](C2CCN(C(=O)[C@H]3CC[C@H](CN4CCC(c5ccc6c(c5)-n5c(nc(=O)c7c(Cl)cccc75)C65CCCCC5)CC4)CC3)CC2)n2cc(C3CC3)nn2)cc1	< 10 nM
Cc1ncsc1-c1ccc([C@H](CCCCN2CCC(c3ccc4c(c3)C3(CCCC3)c3nc(=O)c5c(Cl)cccc5n3-4)CC2)NC(=O)[C@@H]2C[C@@H](O)CN2C(=O)[C@@H](NC(=O)C2(F)CC2)C(C)(C)C)cc1	< 100 nM

Quote DC50 reported for Cc1ncsc1-c1ccc([C@H](C)NC(=O)[C@@H]2C[C@@H](O)CN2C(=O)[C@H](C2CCCCC2)n2cc([C@H]3CC[C@H](CN4CCC(c5ccc6c(c5)-n5c(nc(=O)c7c(Br)cccc75)C65CCCCC5)CC4)CC3)nn2)cc1 please.
< 10 nM

For Cc1ncsc1-c1ccc([C@H](C)NC(=O)[C@@H]2C[C@@H](O)CN2C(=O)[C@@H](n2cc(CCCCCN3CCC(c4ccc5c(c4)C4(CCCCC4)c4nc(=O)c6c(Br)cccc6n4-5)CC3)nn2)C(C)(C)C)cc1 , write its DC50.
< 100 nM

====

target: SMARCA4 (Homo sapiens); assay: HiBiT assay for protein degradation, Hela SMARCA4-HiBiT cells (A series); type: cell-based; parameters: fuse HiBiT to the carboxy terminus of SMARCA2 (Promega CS302365) or SMARCA4 (Promega CS3023225); host or cells: HeLa (CRISPR/Cas9 HiBiT knock-in); conditions: HeLa, read-out: SMARC A4 Hela HiBit Dmax(%)
Dmax overview

Return value of Dmax for input Cc1ncsc1-c1ccc([C@H](C)NC(=O)[C@@H]2C[C@@H](O)CN2C(=O)[C@@H](NC(=O)CCCN2CCC(c3ccc4c(c3)C3(CCCCC3)c3nc(=O)c5c(Cl)cccc5n3-4)CC2)C(C)(C)C)cc1 [Compound A7] , no commentary.
< 50%

Annotate the compound Cc1ncsc1-c1ccc([C@H](C)NC(=O)[C@@H]2C[C@@H](O)CN2C(=O)[C@@H](NC(=O)[C@H]2CC[C@H](CN3CCC(c4ccc5c(c4)-n4c(nc(=O)c6c(Br)cccc64)C54CCCCC4)CC3)CC2)C(C)(C)C)cc1 [Compound A41] with its measured Dmax.
< 50%

# return recorded Dmax for entry Cc1ncsc1-c1ccc([C@H](C)NC(=O)[C@@H]2C[C@@H](O)CN2C(=O)[C@@H](NC(=O)CN2CCC(c3ccc4c(c3)C3(CCCCC3)c3nc(=O)c5c(Cl)cccc5n3-4)CC2)C(C)(C)C)cc1 [Compound A5]
> 90%
